Assay: Cytotoxicity MTT assay
Assay type: cell-based
Settings: mouse, 3T3 fibroblast cells, 48 h, Mean ± SD, n = 3, read-out: IC₅₀ cytotoxicity MTT
Reported Endpoint: IC50 at 48 h

>>> obs_value("COc1ccc(S(=O)(=O)N2CC(=O)NC2=S)cc1C(=O)O")
"> 900 µg/mL"
>>> obs_value("O=C1CN(S(=O)(=O)c2cc(C(=O)O)ccc2Cl)C(=S)N1")
"> 900 µg/mL"
>>> obs_value("CC(=O)Nc1ccc(S(=O)(=O)N2CC(=O)NC2=S)cc1")
"> 900 µg/mL"
>>> obs_value("O=C1CN(S(=O)(=O)c2cccc(C(=O)O)c2)C(=S)N1")
"845 µg/mL"
>>> obs_value("Cc1ccc(S(=O)(=O)N2CC(=O)NC2=S)cc1C(=O)O")
"690 µg/mL"
>>> obs_value("Cc1ccc(S(=O)(=O)N2CC(=O)NC2=S)cc1")
"722 µg/mL"
>>> obs_value("CC(=O)c1cccc(S(=O)(=O)N2CC(=O)NC2=S)c1")
"598 µg/mL"
>>> obs_value("Cc1ccc(-c2cc(C(F)(F)F)nn2-c2ccc(S(N)(=O)=O)cc2)cc1 [Celecoxib, reference compound]")
"342 µg/mL"

###

Assay: DPPH free radical scavenging assay
Conditions: 3.12 µg/mL
Assign y to entries whose DPPH free radical scavenging % inhibition meets or exceeds 20%; assign n to the rest.

>>> category_label("Cc1ccc(S(=O)(=O)N2CC(=O)NC2=S)cc1C(=O)O [FP5]")
"n"
>>> category_label("O=C1CN(S(=O)(=O)c2cc(C(=O)O)ccc2Cl)C(=S)N1 [FP7]")
"n"
>>> category_label("Cc1ccc(S(=O)(=O)N2CC(=O)NC2=S)cc1 [FP3]")
"n"
>>> category_label("O=C1CN(S(=O)(=O)c2cccc(C(=O)O)c2)C(=S)N1 [FP2]")
"n"
>>> category_label("CC(=O)c1cccc(S(=O)(=O)N2CC(=O)NC2=S)c1 [FP4]")
"y"
>>> category_label("COc1ccc(S(=O)(=O)N2CC(=O)NC2=S)cc1C(=O)O [FP6]")
"n"
>>> category_label("CC(=O)Nc1ccc(S(=O)(=O)N2CC(=O)NC2=S)cc1 [FP1]")
"n"
>>> category_label("O=C1O[C@H]([C@@H](O)CO)C(O)=C1O [Ascorbic Acid, reference compound]")
"y"

This collection of values is drawn from paper PMC12316928.
